The reported numbers originate from patent US11524955B2.

study_system: IRAK4 (Homo sapiens, UniProt Q9NWZ3)
Sequence (Q9NWZ3 1-460): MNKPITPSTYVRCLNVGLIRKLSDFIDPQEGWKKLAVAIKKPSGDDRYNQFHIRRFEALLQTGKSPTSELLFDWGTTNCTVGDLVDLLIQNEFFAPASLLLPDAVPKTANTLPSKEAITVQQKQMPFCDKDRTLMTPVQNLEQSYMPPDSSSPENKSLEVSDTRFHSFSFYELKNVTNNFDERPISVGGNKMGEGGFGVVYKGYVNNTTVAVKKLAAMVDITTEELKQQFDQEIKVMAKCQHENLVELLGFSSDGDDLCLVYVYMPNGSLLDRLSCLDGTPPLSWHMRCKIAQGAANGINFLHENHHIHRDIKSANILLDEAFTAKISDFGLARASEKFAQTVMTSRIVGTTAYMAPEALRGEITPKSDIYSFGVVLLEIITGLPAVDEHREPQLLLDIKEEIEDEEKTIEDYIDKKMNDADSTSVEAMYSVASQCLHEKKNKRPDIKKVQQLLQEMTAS
protocol_summary: IRAK4 biochemical assay, ADP-Glo kinase assay
assay_context: ratio of TAK1 and IRAK4 IC50
Method: IRAK4 and TAK1 biochemical assays: kinase activity was measured by ADP-Glo kinase assay (Promega).
reported_endpoint: Selectivity (TAK1/IRAK4)
Give the figure only, with no unit attached.

These recorded examples may help you get a feel for the data.
| structure_as_smiles | measured_number |
| --- | --- |
| NC(=O)[C@@H]1[C@H](Nc2nc(Nc3cccc(C(=O)N4CCCC4)c3)ncc2-c2ccncc2)[C@H]2C=C[C@@H]1C2 | 7 |
| N#Cc1cccc(-c2cnc(Nc3cccc(C(=O)N4CCCC4)c3)nc2N[C@@H]2CCCC[C@@H]2C(N)=O)c1 | 2 |
| NC(=O)[C@@H]1[C@H](Nc2nc(Nc3cccc(C(=O)N4CCCC4)c3)ncc2-c2cccc(F)c2)[C@H]2C=C[C@@H]1C2 | 17 |

# input Param item = NC(=O)[C@@H]1[C@H](Nc2nc(Nc3cccc(C(=O)N4CCCC4)c3)ncc2-c2ccccc2F)[C@H]2C=C[C@@H]1C2 ; retrieve measured Selectivity (TAK1/IRAK4).
# output 434

# input May I ask what Selectivity (TAK1/IRAK4) has been recorded for N#Cc1cccc(-c2cnc(Nc3cccc(C(=O)N4CCCC4)c3)nc2N[C@H]2[C@@H](C#N)[C@@H]3C=C[C@H]2C3)c1 ?
# output 36
